Listing of recorded Max ΔF/F0 by entry.
Target: human TAS1R2-I191V/TAS1R3-WT (Homo sapiens, UniProt Q7RTX0+Q8TE23, I191V)
Construct: expressed in transfected cells; host or cells: HEK293T-Gα16gust44
Sequence (Q8TE23 20-839 I191V): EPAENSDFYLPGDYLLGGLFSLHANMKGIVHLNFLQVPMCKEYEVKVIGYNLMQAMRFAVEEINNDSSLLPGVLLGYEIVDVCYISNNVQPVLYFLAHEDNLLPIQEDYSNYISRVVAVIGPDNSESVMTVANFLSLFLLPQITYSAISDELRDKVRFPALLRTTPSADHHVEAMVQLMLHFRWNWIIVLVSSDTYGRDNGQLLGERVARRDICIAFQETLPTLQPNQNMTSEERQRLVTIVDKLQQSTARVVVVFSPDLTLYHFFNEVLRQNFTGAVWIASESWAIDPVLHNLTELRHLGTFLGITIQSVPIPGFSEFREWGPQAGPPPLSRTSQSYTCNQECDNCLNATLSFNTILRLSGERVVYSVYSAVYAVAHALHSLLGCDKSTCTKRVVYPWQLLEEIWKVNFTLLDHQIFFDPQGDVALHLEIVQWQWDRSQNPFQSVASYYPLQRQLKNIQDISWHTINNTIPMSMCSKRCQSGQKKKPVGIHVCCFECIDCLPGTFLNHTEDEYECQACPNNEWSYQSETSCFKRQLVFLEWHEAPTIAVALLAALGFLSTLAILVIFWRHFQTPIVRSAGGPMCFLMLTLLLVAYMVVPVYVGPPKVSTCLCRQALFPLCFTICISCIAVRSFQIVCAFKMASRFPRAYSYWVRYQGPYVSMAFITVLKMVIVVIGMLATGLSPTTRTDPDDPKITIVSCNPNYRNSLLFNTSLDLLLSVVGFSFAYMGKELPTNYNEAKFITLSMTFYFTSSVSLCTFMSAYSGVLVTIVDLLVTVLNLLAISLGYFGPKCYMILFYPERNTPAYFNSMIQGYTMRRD
Sequence (Q7RTX0 21-852): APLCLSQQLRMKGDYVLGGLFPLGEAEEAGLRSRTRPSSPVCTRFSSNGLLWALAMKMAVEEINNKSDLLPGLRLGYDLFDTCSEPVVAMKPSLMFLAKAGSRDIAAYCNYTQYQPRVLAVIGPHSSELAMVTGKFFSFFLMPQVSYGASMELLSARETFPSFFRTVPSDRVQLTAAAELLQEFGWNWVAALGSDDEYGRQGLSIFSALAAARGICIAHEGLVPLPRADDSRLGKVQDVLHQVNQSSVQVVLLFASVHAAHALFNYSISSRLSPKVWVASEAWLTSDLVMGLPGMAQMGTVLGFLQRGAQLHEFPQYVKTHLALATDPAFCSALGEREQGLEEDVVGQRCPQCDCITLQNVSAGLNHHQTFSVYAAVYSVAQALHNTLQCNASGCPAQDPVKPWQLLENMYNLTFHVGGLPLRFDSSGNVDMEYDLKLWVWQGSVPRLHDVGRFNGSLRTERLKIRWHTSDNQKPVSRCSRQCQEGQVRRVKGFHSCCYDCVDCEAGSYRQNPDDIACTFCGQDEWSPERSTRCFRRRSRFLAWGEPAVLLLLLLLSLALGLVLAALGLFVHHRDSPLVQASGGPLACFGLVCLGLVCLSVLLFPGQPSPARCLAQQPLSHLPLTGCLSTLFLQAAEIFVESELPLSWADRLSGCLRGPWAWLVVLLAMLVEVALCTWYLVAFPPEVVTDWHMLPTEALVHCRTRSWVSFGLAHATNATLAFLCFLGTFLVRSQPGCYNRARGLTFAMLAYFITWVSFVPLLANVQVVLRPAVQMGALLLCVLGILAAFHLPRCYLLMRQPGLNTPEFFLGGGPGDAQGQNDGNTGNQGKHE
Assay: Calcium mobilisation assay, TAS1R2 variant I191V with TAS1R3-WT
Assay type: cell-based
Conditions: maximal signal amplitude
Give the figure by itself; no unit, no explanation.

[
  {
    "Molecule": "OC[C@H]1O[C@H](O[C@]2(CCl)O[C@H](CCl)[C@@H](O)[C@@H]2O)[C@H](O)[C@@H](O)[C@H]1Cl",
    "Tested On": "human TAS1R2-I191V/TAS1R3-WT (Homo sapiens, UniProt Q7RTX0+Q8TE23, I191V)",
    "Observed Result": 0.52
  }
]

For record C[C@H](CC[C@@H](O[C@@H]1O[C@H](CO[C@@H]2O[C@H](CO)[C@@H](O)[C@H](O)[C@H]2O)[C@@H](O)[C@H](O)[C@H]1O[C@@H]1O[C@H](CO)[C@@H](O)[C@H](O)[C@H]1O)C(C)(C)O)[C@H]1CC[C@@]2(C)[C@@H]3CC=C4[C@@H](CC[C@H](O[C@@H]5O[C@H](CO[C@@H]6O[C@H](CO)[C@@H](O)[C@H](O)[C@H]6O)[C@@H](O)[C@H](O)[C@H]5O)C4(C)C)[C@]3(C)[C@H](O)C[C@]12C [Mogroside V, mogroside V] the listed Max ΔF/F0 is 1.33
